- target: Cytochrome P450 2C9 (Homo sapiens)
- experiment.summary: Cytochrome P450 Family 2 Subfamily C Member 9 (CYP2C9) small molecule antagonists: luciferase reporter qHTS assay (AID 1671198); note: nearly all actives have a fitted effect of over 50% in size
- measurement.context: P450-Glo CYP2C9 enzyme assay, luciferin luminescence; series mostly up to 115 µM
Results filed as inconclusive are left out. The source made the active and inactive calls. Calls come from the whole dose curve; as a rule, active = well fitted inhibition curve with a large enough effect in the repeat runs; inconclusive = weak or mixed curves; inactive = no such curve, though single readings can be large or run the other way.
Please answer using one outcome listed in active, inactive

Answered cases to consult:
{"compound": "COc1cccc([C@H](O)C2CCN(CCc3ccc(F)cc3)CC2)c1OC", "answer.label": "inactive"}
{"compound": "CCN(CC)CC(=O)OCC(=O)[C@@]1(O)CC[C@H]2[C@@H]3CCC4=CC(=O)CC[C@]4(C)[C@H]3[C@@H](O)C[C@@]21C", "answer.label": "inactive"}
{"compound": "CCc1ccc2c(c1)C(=O)c1ccccc1C2=O", "answer.label": "active"}

Ask: Test call for this compound, please: O=C(O)c1cc(C(=O)O)cc([N+](=O)[O-])c1
Reply: inactive

Ask: Test call for this compound, please: COc1ccc(CN(CCN(C)C)c2ncccn2)cc1
Reply: inactive

Ask: Test call for this compound, please: O=S(=O)(O)c1cc(Cl)c(Cl)cc1Cl
Reply: active

Ask: Test call for this compound, please: CCOC(OCC)OCC
Reply: inactive

Ask: Test call for this compound, please: C[C@H](N)C(=O)N[C@@H](C)C(=O)NC1[C@H]2CN(c3nc4c(cc3F)c(=O)c(C(=O)O)cn4-c3ccc(F)cc3F)C[C@@H]12 (some centres undefined)
Reply: inactive

Ask: Test call for this compound, please: Cc1cc(C)n(CO)n1
Reply: inactive

Ask: Test call for this compound, please: O=C(O)c1cc(C(=O)O)c(C(=O)O)cc1C(=O)O
Reply: inactive

Ask: Test call for this compound, please: CCCCCCCCC(=O)OCC(C)OC(=O)CCCCCCCC (centres undefined)
Reply: active

###

- experiment.summary: A CellTox Green Cytotoxicity Assay to monitor cytotoxicity in HepG2 cells - 40 hour (AID 1224879); note: nearly all actives have a fitted effect of over 40% in size
- measurement.context: CellTox Green fluorescence; series mostly up to 76.8 µM
- Excerpt: National Center for Advancing Translational Sciences [NCATS] NIH Chemical Genomics Center [NCGC] U.S. Environmental Protection Agency [EPA] National Institutes of Environmental Health Sciences [NIEHS] National Toxicology Program [NTP] Cell-based models are critical for drug discovery. […] Viable cells produce no appreciable increases in fluorescence. Therefore, the fluorescence signal produced by the binding interaction with dead cell DNA is proportional to cytotoxicity. […]
Inconclusive results are not listed. Calls of active or inactive are those of the source. Calls follow the shape of the dose curve; as a rule, active = well fitted activation curve with a large enough effect in the repeat runs; inconclusive = weak or mixed curves; inactive = flat fitted curve, though single readings scatter.
Please answer using one outcome listed in active, inactive

Answered cases to consult:
{"compound": "O=C1OC(=O)C2CC=CCC12 (stereo not drawn)", "answer.label": "inactive"}
{"compound": "C/C=C1\\[C@H]2C=C(C)C[C@]1(N)c1ccc(=O)[nH]c1C2", "answer.label": "inactive"}
{"compound": "CC(C(=O)O)c1ccc2c(c1)Cc1cccnc1O2 (stereo not drawn)", "answer.label": "inactive"}
{"compound": "CC(CCl)OC(C)CCl (stereo not drawn)", "answer.label": "inactive"}
{"compound": "CC(C)C[C@H](NC(=O)[C@H](Cc1ccccc1)NC(=O)c1cnccn1)B(O)O", "answer.label": "active"}
{"compound": "O=C(NC1CCN(CCc2c[nH]c3ccccc23)CC1)c1ccccc1", "answer.label": "inactive"}

Ask: Test call for this compound, please: O=C(c1ccco1)N1CCNCC1
Reply: inactive

Ask: Test call for this compound, please: CC(Cc1ccccc1)(NC(=O)CN)c1ccccc1 (stereo not drawn)
Reply: inactive

Ask: Test call for this compound, please: O=C(OCCN1CCOCC1)c1cccnc1Nc1cccc(C(F)(F)F)c1
Reply: inactive

Ask: Test call for this compound, please: OCCCO
Reply: inactive

Ask: Test call for this compound, please: Clc1cc(Cl)c2c(c1)N=C1CCCCCN1C2
Reply: inactive

Ask: Test call for this compound, please: CCC1=C(C)CN(C(=O)NCCc2ccc(S(=O)(=O)NC(=O)NC3CCC(C)CC3)cc2)C1=O (stereo not drawn)
Reply: inactive

Ask: Test call for this compound, please: CC(O)C(C)O (stereo not drawn)
Reply: inactive
